Where do these numbers come from? They come from paper PMC9817140.

Target: RpoN (sigma-54) (Vibrio parahaemolyticus RIMD2210633) (UniProt Q87LE2)
Sequence: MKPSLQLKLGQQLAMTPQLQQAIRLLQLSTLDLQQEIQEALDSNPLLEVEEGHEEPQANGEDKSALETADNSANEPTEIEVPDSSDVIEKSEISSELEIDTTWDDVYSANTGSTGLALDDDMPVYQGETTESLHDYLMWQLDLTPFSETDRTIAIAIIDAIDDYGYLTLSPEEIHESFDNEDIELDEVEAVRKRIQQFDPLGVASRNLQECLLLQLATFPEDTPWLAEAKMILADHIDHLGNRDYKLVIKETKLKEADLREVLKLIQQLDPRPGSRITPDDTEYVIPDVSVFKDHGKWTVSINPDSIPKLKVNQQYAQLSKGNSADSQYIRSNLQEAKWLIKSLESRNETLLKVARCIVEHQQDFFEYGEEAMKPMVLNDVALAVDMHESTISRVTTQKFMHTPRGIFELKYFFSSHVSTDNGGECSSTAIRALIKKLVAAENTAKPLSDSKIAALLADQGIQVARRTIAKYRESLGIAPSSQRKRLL
Experiment: EMSA
Settings: EMSA: 20 µl with 10 ng FAM probe, 4 µl EMSA buffer (10 mM NaCl, 0.1 mM DTT, 0.1 mM EDTA, 10 mM Tris pH 7.4), 1 µl poly-dIdC, 25 °C 0.5 h, 6% native PAGE
PROPERTY_LABEL: binding

RESIDUE_CODES | SUBJECT_OF_TEST | PROPERTY_LABEL | READING
TGCCTGCAGGTCGACGATGTGGAATGTAATGGCCGACGCAAAGAAATGGCAGAGAAGTTGGGCATAAGCCCGCGTACTCTGCGCTACAAACTTGCCAAAATGCGTGACGCGGGTATAGATATTCCGAGTTAGGTTTCACACGCGTAGCCATAAGACAAAAGTGTGAGTAAACTATACAGCTGGCGTCTTATGGCACATAAATTGCTGTGTCAATAATTAGTTTAAATAGATAGTCAAACTTTTGGCTCAGAGGTGATA (double strand) [fliE promoter] | RpoN (sigma-54) (Vibrio parahaemolyticus RIMD2210633) (UniProt Q87LE2) | binding | binds
TGCCTGCAGGTCGACGATTCTGTAAATAATAATTGAGAGTTGCTTCATAATAACTATTATTAGTTATAAATATCGCTTAATTTAAATCTAATTTAAAGATATAAAGGAGCGTATTTAAAATGAAGTTTTTGATACATCAATCATTAATTATCATTATTCAGATAATTTAATTAATACGAAATATGTCAATTAATAATGCTCTAGGAGATTAGC (double strand) [hcp2 promoter] | RpoN (sigma-54) (Vibrio parahaemolyticus RIMD2210633) (UniProt Q87LE2) | binding | binds
TGCCTGCAGGTCGACGATTCTCTTTGCCTTAATCTTATGCCGATCAAAGCACATCGGAAACTAACGCTAAAACGGTAGCAAACCCCAACTTAGTGGAATGCAAGTCACTAAAAATCATCAATTTTGATCTTTTTTAGAAAATTTTTAATTTTCAAATTAATCATTAGTGGCAAGCGACCGCCTCTAGTTAGTGACTAGGGAATATCCCAAGGCCTGAAAGAAATAGTGATAAACTAAGGAGACTAAG (double strand) [lafA promoter] | RpoN (sigma-54) (Vibrio parahaemolyticus RIMD2210633) (UniProt Q87LE2) | binding | binds
